All values here come from PubChem BioAssay (NCATS).

# ASSAY_METHOD_TEXT: High-throughput drug toxicity screening in the BPDCN cell line Gen2.2 (AID 1224824);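 note: cells exposed to compounds for 48 h before reading; 100% = DMSO and 0% = bortezomib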
# CONDITION_PARAMETERS: Gen2.2 BPDCN cells; at 45.8 µM (top of the series) unless noted
Quick reference for cell viability, % of control (lower = more cytotoxic) among some compounds
PROPERTY: cell viability, % of control (lower = more cytotoxic) (%)

COMPOUND: NC(=O)c1cccnc1
SCALE_UNIT: %
EXPERIMENTAL_RESULT: 114

COMPOUND: CN1CCCC(n2nc(Cc3ccc(Cl)cc3)c3ccccc3c2=O)CC1 (stereo not drawn)
SCALE_UNIT: %
EXPERIMENTAL_RESULT: 9.12

COMPOUND: CNC1CCCN(c2c(F)cc3c(=O)c(C(=O)O)cn(C4CC4)c3c2OC)C1 (stereo not drawn)
SCALE_UNIT: %
EXPERIMENTAL_RESULT: 106

COMPOUND: CNS(=O)(=O)CCc1ccc2[nH]cc(C3CCN(C)CC3)c2c1
SCALE_UNIT: %
EXPERIMENTAL_RESULT: 238

COMPOUND: CC(=O)[C@H]1CC[C@H]2[C@@H]3CCC4=CC(=O)CC[C@]4(C)[C@H]3CC[C@]12C
SCALE_UNIT: %
EXPERIMENTAL_RESULT: 83

COMPOUND: COC(c1ccccc1)(c1ccccc1)[C@H](Oc1nc(C)cc(C)n1)C(=O)O
SCALE_UNIT: %
EXPERIMENTAL_RESULT: 195

COMPOUND: COC(=O)Nc1nc2ccc(C(=O)c3ccccc3)cc2[nH]1
SCALE_UNIT: %
EXPERIMENTAL_RESULT: 176

COMPOUND: Nc1nc(N)nc(-c2cc(Cl)ccc2Cl)n1
SCALE_UNIT: %
EXPERIMENTAL_RESULT: 126

COMPOUND: N=C(N)c1ccc(OCCCCCOc2ccc(C(=N)N)cc2)cc1
SCALE_UNIT: %
EXPERIMENTAL_RESULT: 272

COMPOUND: C[C@@H](CN1CC(=O)NC(=O)C1)N1CC(=O)NC(=O)C1
SCALE_UNIT: %
EXPERIMENTAL_RESULT: 147

COMPOUND: CCCCS(=N)(=O)CCC(N)C(=O)O (stereo not drawn)
SCALE_UNIT: %
EXPERIMENTAL_RESULT: 17.3

COMPOUND: COc1ncnc(NS(=O)(=O)c2ccc(N)cc2)c1OC
SCALE_UNIT: %
EXPERIMENTAL_RESULT: 106

COMPOUND: COc1ccc2c(c1)c(CC(=O)OCC(=O)O)c(C)n2C(=O)c1ccc(Cl)cc1
SCALE_UNIT: %
EXPERIMENTAL_RESULT: 144

COMPOUND: CC(C)(Sc1cc(C(C)(C)C)c(O)c(C(C)(C)C)c1)Sc1cc(C(C)(C)C)c(O)c(C(C)(C)C)c1
SCALE_UNIT: %
EXPERIMENTAL_RESULT: 48.3

COMPOUND: O=NN(CCCl)C(=O)NC1CCCCC1
SCALE_UNIT: %
EXPERIMENTAL_RESULT: 110

COMPOUND: CCn1cc(C(=O)O)c(=O)c2cc(F)c(N3CCNCC3)cc21
SCALE_UNIT: %
EXPERIMENTAL_RESULT: 113

COMPOUND: Nc1nc(=S)c2[nH]cnc2[nH]1
SCALE_UNIT: %
EXPERIMENTAL_RESULT: 51.9

COMPOUND: COC(=O)Nc1nc2ccc(S(=O)c3ccccc3)cc2[nH]1 (stereo not drawn)
SCALE_UNIT: %
EXPERIMENTAL_RESULT: 86.3

COMPOUND: CCN(CC)CC#CCOC(=O)C(O)(c1ccccc1)C1CCCCC1 (stereo not drawn)
SCALE_UNIT: %
EXPERIMENTAL_RESULT: 205

COMPOUND: CCN[C@H]1C[C@H](C)S(=O)(=O)c2sc(S(N)(=O)=O)cc21
SCALE_UNIT: %
EXPERIMENTAL_RESULT: 71.7

COMPOUND: COc1ccc(C(=O)CC(=O)c2ccc(C(C)(C)C)cc2)cc1
SCALE_UNIT: %
EXPERIMENTAL_RESULT: 5.71

COMPOUND: O=C(O)CCn1c2c(c3ccccc31)C[C@H](NS(=O)(=O)c1ccc(F)cc1)CC2
SCALE_UNIT: %
EXPERIMENTAL_RESULT: 124

COMPOUND: CCCOc1ccc(C(=O)OCCN(CC)CC)cc1N
SCALE_UNIT: %
EXPERIMENTAL_RESULT: 177
